What t1/2 was measured for each of the following?
# assay.remarks: Metabolic stability in human serum assessed as half life at 2.5 uM measured upto 120 mins in presence of NADPH by LC-MS analysis
# Assay type: ADME, cell-free
# protocol.conditions: 2 h
One number for each entry, in min.

Count: 5. Required value per item: t1/2.
1. CCCCC(=O)OCOc1cccc2[nH]cc(CCN(C)C)c12
2. CC(C)[Si](C(C)C)(C(C)C)n1cc(CCN(C)C)c2c(OC(=O)OCC3CC3)cccc21
3. CN(C)CCc1c[nH]c2cccc(OC(=O)OCC(Cl)(Cl)Cl)c12
4. CN(C)CCc1c[nH]c2cccc(OC(=O)SCc3ccccc3)c12
5. CN(C)CCc1c[nH]c2cccc(OC(=O)c3ccc(Br)cc3)c12

**Result**
[3, 26, 182, 14, 19]

Batch: t1/2 for all items listed.
1. COC(=O)c1cccc(C(=O)Oc2cccc3[nH]cc(CCN(C)C)c23)c1
2. CC(C)[Si](C(C)C)(C(C)C)n1cc(CCN(C)C)c2c(OC(=O)Sc3ccccc3)cccc21

**Result**
33
32

Values were extracted from ChEMBL document CHEMBL5335796.
